// provenance: PubChem BioAssay (NCI)

System: BT-549 breast
EXPERIMENTAL DETAILS: NCI-60 one-dose screen, 48 h (100 = growth as untreated, 0 = no growth, -100 = all killed)
EXPERIMENTAL SETUP: 10 µM unless noted
The panel holds about 83,000 compounds, 20% with a hit somewhere; the sample as a whole holds those more often.
Give growth for every item shown.
The answer is to be given in %; state only the numeric part.

input: Supply recorded growth for O=C([O][Sn]([O]C(=O)c1ccccn1)([c]1ccccc1)[c]1ccccc1)c1ccccn1 here.
output: 98.5

input: Supply recorded growth for COc1ccc(/C=C2\Oc3cc(OCCCN4CCCC4)ccc3C2=O)cc1 here.
output: 95.5

input: Supply recorded growth for COc1ccc2c(c1)C(c1cc(OC)c3c(c1)OCO3)C1=C(COC1=O)N2 (stereo not given) here.
output: 23.4

input: Supply recorded growth for Cc1cc(N/N=C/c2nc(-c3ccccc3)oc2C)c2cc(Cl)ccc2n1 here.
output: 87

input: Supply recorded growth for COc1cc(-c2nn(-c3cccc(NC(=O)c4ccc(Cl)c(C(F)(F)F)c4)c3)cc2-c2ccncc2)ccc1Cl here.
output: 49.7

* * *

Tested on: OVCAR-5 ovarian
EXPERIMENTAL DETAILS: NCI-60 one-dose screen, 48 h
EXPERIMENTAL SETUP: 10 µM unless noted
The panel holds about 83,000 compounds, 20% with a hit somewhere; the sample as a whole holds those more often. Active and inactive are the calls of the source. Rule for the calls: active = growth percent below 10; inactive = the rest.
Output constraint: value belongs to 1.0 (active), 0.0 (inactive)

input: Can you look up the reported call for CC(C)(C)N1CCC1C(N)=O (stereo not given) for me?
output: 0.0

input: Can you look up the reported call for COc1ccc(-n2c(=S)sc3c(Cl)nc(C)nc32)c(OC)c1 for me?
output: 0.0

input: Can you look up the reported call for COc1ccc(-c2ccc(-c3ccc(C(=N)N)cn3)s2)cc1OC for me?
output: 0.0

input: Can you look up the reported call for N#Cc1ccc(N2Cc3ccccc3OC3=C2C(=O)c2c(O)ccc(O)c2C3=O)cc1 for me?
output: 1.0

input: Can you look up the reported call for COc1ccc(Nc2nc(N)nc3c2CCN(Cc2ccc(OC)cc2OC)C3=O)cc1 for me?
output: 0.0

input: Can you look up the reported call for Oc1ccc(Cl)cc1-c1cc(-c2ccc(F)cc2)n[nH]1 for me?
output: 0.0

input: Can you look up the reported call for CN(CCCCCl)P(=O)(OCc1ccc([N+](=O)[O-])o1)C(F)(F)C[C@H](NC(=O)CNC(=O)c1ccc(N=[N+]=[N-])cc1)C(=O)NCCc1ccc(O)cc1 (stereo not given in full) for me?
output: 0.0

input: Can you look up the reported call for CCc1ccc(-c2ccc(=O)n(-c3ccc(S(N)(=O)=O)cc3)n2)cc1 for me?
output: 0.0

input: Can you look up the reported call for Cc1csc(NC(c2ccc(Br)cc2)c2c(C)nc3ccccn23)n1 (stereo not given) for me?
output: 0.0

input: Can you look up the reported call for COc1cccc(/C=C/C(=O)Nc2cc(OC)c3c(c2)OCO3)c1 for me?
output: 0.0

* * *

Give growth for every item shown.
Tested on: KM12 colon
EXPERIMENTAL DETAILS: NCI-60 one-dose screen, 48 h (100 = growth as untreated, 0 = no growth, -100 = all killed)
EXPERIMENTAL SETUP: 10 µM unless noted
This is part of a sample that, as a whole, favours compounds with a hit. Of some 83,000 tested, about 20% had one in any assay. Active and inactive are the calls of the source. How the source made its calls: active means growth percent below 10; inactive means the rest.

input: Supply recorded growth for COc1ccc(S(=O)(=O)n2ccc(-c3ccc4c(c3)CCC(C)(C)O4)n2)cc1OC here.
output: 71.4% (inactive)

input: Supply recorded growth for Cc1nc2ncccc2nc1Nc1ccc(S(=O)(=O)Nc2ccccn2)cc1 here.
output: 97.8% (inactive)

input: Supply recorded growth for CCN(CC)c1ccc(CNc2ccnc3ccccc23)cc1 here.
output: 73.6% (inactive)

input: Supply recorded growth for O=S1(=O)CCC(N(/N=C/c2ccco2)c2ccccc2)C1 (stereo not drawn) here.
output: 103% (inactive)

input: Supply recorded growth for Cc1cc(C2(c3cc(C)c(O)cc3C)OS(=O)(=O)c3ccccc32)c(C)cc1O here.
output: 106% (inactive)

input: Supply recorded growth for NC(=S)N/N=C(/CCN1CCCC1)CC(C1=C(O)C2=CCCCC2OC1=O)c1ccccc1 (stereo not drawn) here.
output: 102% (inactive)

input: Supply recorded growth for O=C(O)/C=C/C(=O)c1ccc(Cl)cc1 here.
output: 106% (inactive)

input: Supply recorded growth for COc1ccc2[nH]c(C(=O)OCc3ccc4c(Cl)cc(Cl)c(O)c4n3)cc2c1 here.
output: -31% (active)

input: Supply recorded growth for Cn1ccc(=O)c(S(N)(=O)=O)c1 here.
output: 103% (inactive)

input: Supply recorded growth for O=C(C1=Cc2cc3ccccc3n2Cc2cnnn21)c1ccccc1 here.
output: 33.8% (inactive)

input: Supply recorded growth for COc1cc(/C=C/C(=O)c2cccc(-n3cc(-c4cc(OC)c(OC)c(OC)c4)[nH]c3=O)c2)cc(OC)c1OC here.
output: -83.4% (active)

input: Supply recorded growth for CCOC(=O)c1c(NS(=O)(=O)c2ccc(C)cc2)sc2c1CCC1(C2)OCCO1 here.
output: 88.8% (inactive)

input: Supply recorded growth for O=C(N/N=C/C=C\c1ccccc1)C(=O)N/N=C/C=C/c1ccccc1 here.
output: 109% (inactive)

input: Supply recorded growth for O=C(O)COc1ccc(-c2cssc2=S)cc1 here.
output: 109% (inactive)

input: Supply recorded growth for CN(CCCCCl)P(=O)(OCc1ccc([N+](=O)[O-])o1)C(F)(F)C[C@H](NC(=O)CNC(=O)c1ccc(N=[N+]=[N-])cc1)C(=O)NCCc1ccc(O)cc1 (stereo partly drawn) here.
output: 91.1% (inactive)

input: Supply recorded growth for C=C[C@@H]1C[C@@H]2Cc3c(C)cc(C)cc3N1O2 here.
output: 104% (inactive)

input: Supply recorded growth for O=C(Nc1ccncc1)C(=O)c1cn(S(=O)(=O)c2ccc(Cl)cc2)c2ccccc12 here.
output: 19.8% (inactive)

input: Supply recorded growth for CCOC(=O)c1cn2c3c(cc(C)cc3c1=O)C(=O)/C(=C/c1ccccc1)C2 here.
output: 102% (inactive)

input: Supply recorded growth for COc1ccc(/C=C\c2cc(OC)c(OC)c(OC)c2)cc1OC(=O)c1cccc(Cn2cc(CCOC(=O)c3cccc(Cn4nnc5c4C(=O)c4ccccc4C5=O)c3)nn2)c1 here.
output: 9.04% (active)

input: Supply recorded growth for CSc1nc2c(c(=O)[nH]1)C(c1ccc(C)cc1)C=C(C(=O)O)N2 (stereo not drawn) here.
output: 112% (inactive)

input: Supply recorded growth for CCCN=C1NC(=O)/C(=C/c2nc(-c3ccc(OC)cc3)n3ccccc23)S1 here.
output: 48.8% (inactive)

input: Supply recorded growth for COc1ccc(-c2c(N)n[nH]c2-c2cc(OC)c(OC)c(OC)c2)cc1 here.
output: 14% (inactive)

input: Supply recorded growth for COc1ccc2[nH]c(=O)c(/C=N/Nc3nc(-c4ccccc4)cs3)c(O)c2c1 here.
output: 69.3% (inactive)

input: Supply recorded growth for COc1cc(C(=O)/C=C/c2c(C)n([O-])c3ccc(C(F)(F)F)cc3[n+]2=O)cc(OC)c1OC here.
output: 91.4% (inactive)

input: Supply recorded growth for COc1ccc(S(=O)(=O)NCCCNc2nccc(-c3c(-c4cccc([N+](=O)[O-])c4)nc4sccn34)n2)cc1 here.
output: 28.9% (inactive)

input: Supply recorded growth for Cc1ccc(C(=O)C2=Cc3cc4ccccc4n3Cc3cnnn32)cc1 here.
output: 83.4% (inactive)

input: Supply recorded growth for CC(C)(C)NCCC(O)c1cc2c(Cl)cc(Cl)cc2c2cc(C(F)(F)F)ccc12 (stereo not drawn) here.
output: -90.9% (active)

input: Supply recorded growth for Cc1ccc(-c2csc(NC(=O)CCCCl)n2)cc1 here.
output: 95% (inactive)

input: Supply recorded growth for NC(N)=N/N=C/c1ccc(-c2ccc(-c3cc(Cl)cc(Cl)c3)s2)cc1 here.
output: -62.4% (active)

input: Supply recorded growth for CN1C(=O)N(C)C2C1NN=c1s/c(=C\C=C\c3ccccc3)c(=O)n12 (stereo not drawn) here.
output: 23.2% (inactive)

input: Supply recorded growth for N=C(N)c1ccc(-c2ccc(-c3cncc4ccccc34)s2)cc1F here.
output: -89.4% (active)

input: Supply recorded growth for C=C(C)[C@@H]1CC[C@]2(C(=O)O)CC[C@]3(C)[C@H](CC[C@@H]4[C@@]5(C)C[C@@H](CC#Cc6ccc(C(F)(F)F)cc6)[C@H](O)C(C)(C)[C@@H]5CC[C@]43C)[C@@H]12 here.
output: 15.3% (inactive)

input: Supply recorded growth for NC(=O)CCCN1C/C(=C\c2ccccc2)C(=O)c2ccccc21 here.
output: 101% (inactive)

input: Supply recorded growth for CC1(C)C(=O)/C(=C\c2ccc(C(F)(F)F)cc2)C[C@]2(C)[C@H]3CC[C@@H]4[C@H]5[C@H](C(=O)/C=C/c6ccc(C(F)(F)F)cc6)CC[C@]5(CO)CC[C@@]4(C)[C@]3(C)CC[C@@H]12 here.
output: 99.2% (inactive)

input: Supply recorded growth for COc1ccc2c(c1)[nH]c(=O)c1c3cc(C)c(C)cc3cn21 here.
output: -87.7% (active)

input: Supply recorded growth for CN(C)CCCC(C#N)c1ccccc1 (stereo not drawn) here.
output: 111% (inactive)

input: Supply recorded growth for COc1ccc(-c2cnoc2-c2ccc(OC)cc2O)cc1 here.
output: 19.2% (inactive)

input: Supply recorded growth for Cc1ccc(S(=O)(=O)C2=C3C(=C(c4ccccc4)c4ccccc43)CN(S(=O)(=O)c3ccc(C)cc3)C2)cc1 here.
output: 64.1% (inactive)
